# reported Post-emergence action LOLRI (herbicidal action in percent); entries follow
system: Lolium rigidum; assay: Post-emergence herbicidal effect, greenhouse pot test; assay type: in vivo; conditions: 80 g/ha, post-emergence at one-leaf stage, assessed visually after about 3 weeks; 100% = plants have died, 0% = like control plants
Please respond with the number in % and leave the unit unwritten.

Known Post-emergence action LOLRI (herbicidal action in percent) results, listed for orientation:
molecule: CC#Cc1cc(Br)c(C2=C(OC(=O)C(C)C)C3(CCC(OC)CC3)NC2=O)c(OC)c1 (stereo not shown) [Example 1.4]
subject of test: Lolium rigidum
quantity unit: %
test result: 100
//
molecule: CC#Cc1cc(Br)c(C2=C(OC(=O)OCC)C3(CCC(OC)CC3)NC2=O)c(OC)c1 (stereo not shown) [Example 1.3]
subject of test: Lolium rigidum
quantity unit: %
test result: 100
//
molecule: CC#Cc1cc(Br)c(C2=C(O)C3(CCC(OC)CC3)NC2=O)c(OC)c1 (single isomer, unassigned) [Example 1.1]
subject of test: Lolium rigidum
quantity unit: %
test result: 100

Let us examine a further case.
Lookup: API: value(readout=Post-emergence action LOLRI (herbicidal action in percent), system=Lolium rigidum) for record CC#Cc1cc(Br)c(C2=C(O)C3(CCC(OC)CC3)NC2=O)c(OC)c1 (single isomer, unassigned) [Example 1.2]
Found: 90
